Source of measurements: a collection of fitness landscapes (doi:10.1016/j.celrep.2020.107928)

Give one-hybrid fitness for binding NBS DNA for every item shown.
B1: Caulobacter ParB omega fusion; a variant is named by its letters at X, in order, B8GW30 (parent)
chain: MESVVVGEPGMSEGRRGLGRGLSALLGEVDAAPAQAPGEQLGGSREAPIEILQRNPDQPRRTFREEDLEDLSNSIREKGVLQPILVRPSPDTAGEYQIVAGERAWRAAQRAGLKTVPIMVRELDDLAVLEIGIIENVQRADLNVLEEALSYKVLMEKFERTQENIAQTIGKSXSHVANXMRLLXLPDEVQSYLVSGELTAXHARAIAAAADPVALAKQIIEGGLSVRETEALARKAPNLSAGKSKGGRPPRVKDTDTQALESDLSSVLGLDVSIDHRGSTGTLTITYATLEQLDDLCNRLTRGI

Variants of: B1
Assay: one-hybrid fitness for binding NBS DNA (the Noc-binding site; scaled: cognate 1, non-cognate 0); higher = stronger binding
Conditions: with NBS DNA site
Over roughly 81,000 sequences, “one-hybrid fitness for binding NBS DNA” has its median near -0.1; the highest 2% begin near 0.36. The full list was thinned out, with the highest values kept by preference.

VFIG
≤ 0.2
RLTY
≤ 0.2
TEKA
≤ 0.2

Take each entry in turn and give its one-hybrid fitness for binding NBS DNA.
1. QRIF
2. QSHW

≤ 0.2
≤ 0.2

Please look at the items below and tell me one-hybrid fitness for binding NBS DNA for each one, in order.
1. PIWS
2. RISS
3. QRWK
4. PFLC
5. TTDQ

1. ≤ 0.2
2. 0.358
3. 0.239
4. ≤ 0.2
5. ≤ 0.2

For every record below, what is its one-hybrid fitness for binding NBS DNA?
1. QRIR
2. QKPR
3. TTNM
4. LQLL
5. YTYC

[0.686, 0.271, "≤ 0.2", "≤ 0.2", "≤ 0.2"]

For each of the variants below, note its one-hybrid fitness for binding NBS DNA.
1. ADVD
2. EIVG

≤ 0.2
≤ 0.2
